- test.target: 5-hydroxytryptamine receptor 1D (Homo sapiens, UniProt P28221)
- Sequence (P28221 whole entry): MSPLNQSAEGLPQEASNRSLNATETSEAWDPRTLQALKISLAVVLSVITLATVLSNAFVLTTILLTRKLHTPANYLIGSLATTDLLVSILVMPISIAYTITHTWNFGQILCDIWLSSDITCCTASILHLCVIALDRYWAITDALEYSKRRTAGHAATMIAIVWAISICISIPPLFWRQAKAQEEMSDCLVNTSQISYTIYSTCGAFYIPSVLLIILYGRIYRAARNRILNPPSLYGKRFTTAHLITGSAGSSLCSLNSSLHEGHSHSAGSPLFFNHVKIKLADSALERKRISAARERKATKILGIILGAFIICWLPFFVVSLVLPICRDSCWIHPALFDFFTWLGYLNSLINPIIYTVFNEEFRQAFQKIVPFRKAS
- test.name: Receptor binding affinity for cloned human 5-hydroxytryptamine 1D receptor in Cos-7 cells
measured.property: Ki (nM)
All answers are understood in nM, so give the number only.

# lookup: Ki of c1ccc2c(N3CCNCC3)cccc2c1
6.2

// returns reported Ki for input COc1ccc2ccc(N3CCNCC3)cc2c1
0.7

# lookup: Ki of CN1CCN(c2cccc3ccc(OCC(=O)N4CCN(c5ccccc5C#N)CC4)cc23)CC1
0.51

Name the reported Ki value associated with the compound Cc1cc(C)c(N2CCN(C(=O)COc3ccc4cccc(N5CCN(C)CC5)c4c3)CC2)c(C)c1
1.9

Need Ki, item COc1cccc(N2CCN(C(=O)COc3ccc4cccc(N5CCN(C)CC5)c4c3)CC2)c1OC
0.62

Name the recorded Ki for Cc1ccccc1N1CCN(C(=O)COc2ccc3cccc(N4CCN(C)CC4)c3c2)CC1 .
0.69

What does the data say about its Ki? Entry: CN1CCN(c2cccc3ccc(OCC(=O)N4CCN(c5cccc6c5OCCO6)CC4)cc23)CC1
0.45

Value lookup for Ki; key = CN1CCN(c2cccc3ccc(OCC(=O)N4CCN(c5cccc6ccccc56)CC4)cc23)CC1
0.88

Look up Ki for this compound: Cc1ccccc1CN1CCN(C(=O)COc2ccc3cccc(N4CCN(C)CC4)c3c2)CC1
0.55

Values from ChEMBL document CHEMBL1130252
